Hello, the source for this data is PubChem BioAssay (Tox21), in case you need it.

ASSAY SUMMARY: qHTS assay for small molecule agonists of the antioxidant response element (ARE) signaling pathway - cell viability counter screen (AID 743203); further: nearly all actives have a fitted effect of over 55% in size
MEASUREMENT CONDITIONS: ARE-bla HepG2 viability, CellTiter-Glo luminescence, 16 h; series mostly up to 73.3 µM
Records with an inconclusive call do not appear. Activity calls are given as the source filed them. The call rests on the fitted dose curve.
Classes used: active, inactive

- Clc1cccc(Cl)c1: inactive
- COP(=S)(OC)Oc1ccc(S(=O)(=O)N(C)C)cc1: inactive
- Cn1c(-c2ccccc2)cc(-c2ccccc2)[n+]1C: inactive
- OCCOCCO: inactive
- O=C(O)CF: inactive
- CC[n+]1c(-c2ccccc2)c2cc(N)ccc2c2ccc(N)cc21: inactive
- CC(C)CON=O: inactive
- CCC1(c2ccc(N)cc2)CCC(=O)NC1=O (stereo not drawn): inactive
- COC(=O)Nc1nc2ccccc2[nH]1: inactive
- CNC(=O)Oc1cccc2c1OC(C)(C)C2: inactive
- C[C@]12CCC(=O)C=C1CC[C@@H]1[C@@H]2CC[C@@]2(C)[C@H]1CC[C@]2(C)O: inactive
- CC(C)(C#N)N=NC(C)(C)C#N: inactive
- N#Cc1cccnc1: inactive
- CC(C)(c1ccc(OCC2CO2)cc1)c1ccc(OCC2CO2)cc1 (stereo not drawn): inactive
- C=CC(Cl)CCl (stereo not drawn): inactive
- N#CCCCCC#N: inactive
- O=[N+]([O-])/N=C1\NCCN1Cc1ccc(Cl)nc1: inactive
- CCCCSP(=O)(SCCCC)SCCCC: inactive
- O=C1CCCO1: inactive
- ClCc1ccccn1: inactive
- C[N+](C)(C)C: inactive
- CCCCOCC1CO1 (stereo not drawn): inactive
- O=S(=O)(O)C(F)(F)C(F)(F)C(F)(F)C(F)(F)C(F)(F)C(F)(F)C(F)(F)C(F)(F)F: active
- CCOP(=O)(OCC)OCC: inactive
- N#CC(c1ccccc1)c1ccccc1: inactive
- C=C(C)C#N: inactive
- COc1ccc(C=O)cc1OC: inactive
- Cl: inactive
- Cc1ccc([N+](=O)[O-])cc1: inactive
- NN=C(N)N: inactive
- [CH3][Sn]([Cl])([Cl])[Cl]: inactive
- CCOS(=O)(=O)OCC: inactive
- C[C@]12CC[C@H]3[C@@H](CCC4=CC(=O)CC[C@@H]43)[C@@H]1CC[C@@H]2O: inactive

====

TARGET OF ASSAY: Nuclear receptor ROR-gamma (Homo sapiens)
ASSAY SUMMARY: qHTS assay to identify small molecule antagonists of the retinoid-related orphan receptor gamma (ROR-gamma) signaling pathway (AID 1159521; further: nearly all actives have a fitted effect of over 50% in size)
MEASUREMENT CONDITIONS: Tet-on RORgamma CHO cells, RORE-luciferase, 16 h; series mostly up to 92.4 µM
Records with an inconclusive call do not appear. Calls of active or inactive are those of the source. The call rests on the fitted dose curve; in most records, active means well fitted inhibition curve with a large enough effect in the repeat runs; inconclusive means weak or mixed curves, or effect the other way; inactive means no such curve, though single readings can be large or run the other way.
Labels: label 1 = active, label 0 = inactive

• Cn1c(-c2ccccc2)cc(-c2ccccc2)[n+]1C = label 0
• Clc1ccccc1-c1nnc(-c2ccccc2Cl)nn1 = label 0
• CC(C)(O)C#N = label 0
• COc1ccc(C=O)cc1OC = label 0
• CC1(C)C(C(=O)OC(C#N)c2cccc(Oc3ccccc3)c2)C1(C)C (stereo not drawn) = label 1
• COc1ccc(CO)cc1 = label 0
• Nc1ncn[nH]1 = label 0
• N#Cc1cccnc1 = label 0
